Reference source for all entries: paper PMC10397247

Biological target: T1, 4H2931-bH
T1 chain: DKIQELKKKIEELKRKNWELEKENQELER
Test: two-hybrid library CCNG1;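 further: natural log of median RNA to DNA barcode read ratio; higher means stronger binding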
Quick list: interaction score per entry.
Please respond with just the number, no unit label.

Example entries begin here.
binder	measured-parameter	reported-value
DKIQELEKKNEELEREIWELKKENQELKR [4H2444-bH]	interaction score	0.0488
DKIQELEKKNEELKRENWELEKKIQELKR [4H2518-bH]	interaction score	-0.584

Turning now to a further record.
Sample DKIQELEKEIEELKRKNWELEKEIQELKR [4H2162-bH] ; interaction score observed: 0.798
